PROTOCOL_DESCRIPTION: qHTS assay to identify small molecule agonists of the estrogen related receptor signaling pathway with the pleiotropic PPARgamma coactivator (PGC) from Tox21 10K library (AID 1224842); further: nearly all actives have a fitted effect of over 15% in size; on activation: on the % scale 0 is the no-effect control and ±100 the full control effect
APPLIED_CONDITIONS: PGC/ERR reporter cell line, luciferase ONE-Glo, 18 h; series mostly up to 92.4 µM
Results filed as inconclusive are left out. Calls of active or inactive are those of the source. The call rests on the fitted dose curve; in most records, active means well fitted activation curve with a large enough effect in the repeat runs; inconclusive means weak or mixed curves, or effect the other way; inactive means no such curve, though single readings can be large or run the other way.
Field 'call' accepts active, inactive

Tell me the assay call for "ICCc1ccccc1" please.
inactive

Recorded test call requested for "CCCNC(C)(C)COC(=O)c1ccccc1"
inactive

What did this assay record as the result for CCCCC1CCC(=O)O1 (centres undefined) ?
inactive

What did this assay record as the result for "CCCCCCCCCCCCOCCOS(=O)(=O)O" ?
inactive

Name the outcome recorded for "CCCCCCCOC(=O)CCC" in the assay.
inactive

Could you check what this test reported for "Cc1ccc(C=O)s1" ?
inactive

Per the assay record, what outcome was assigned to "C1CSCCS1" ?
inactive

Called result for "O=S(=O)(O)C(F)(F)F"
inactive

Call for entry "CCCCCCOc1ccc(N)cc1" :
active

###

PROTOCOL_DESCRIPTION: qHTS RealTime-Glo MT Cell Viability Assay in HEK293 cells - 8 hour (AID 1224887); further: nearly all actives have a fitted effect of over 50% in size
APPLIED_CONDITIONS: RealTime-Glo luminescence; series mostly up to 76.8 µM
Source text: U.S. Tox21 Program National Center for Advancing Translational Sciences [NCATS] NIH Chemical Genomics Center [NCGC] U.S. Environmental Protection Agency [EPA] National Institutes of Environmental Health Sciences [NIEHS] National Toxicology Program [NTP] U.S. Food and Drug Administration [FDA] Tox21 Assay Overview: Measure of cell viability is critical in the cell-base assay. Analysis of cell viability is necessary for the characterization of cell responses to cytotoxic drugs and environmental stress. […]
Results filed as inconclusive are left out. The source made the active and inactive calls. The call rests on the fitted dose curve; in most records, active means well fitted cell-killing curve with a large enough effect in the repeat runs; inconclusive means weak or mixed curves, or effect the other way; inactive means flat fitted curve, though single readings scatter.
Hello, when you answer, please use one of the following outcomes: t for active, f for inactive

Hello, I am checking results. What call was entered for "CCCC(CCC)(C(=O)OCC)C(=O)OCC" ?
f

Outcome logged for "CCCCC(=O)O[C@]1(C(=O)CO)[C@H](C)C[C@H]2[C@@H]3CCC4=CC(=O)C=C[C@]4(C)[C@@]3(F)[C@@H](O)C[C@@]21C" in this assay:
f

Hey, what did the test say about "COc1nc(C)nc(NC(=O)NS(=O)(=O)c2ccccc2OCCCl)n1" ?
f

Query: recorded result category for "OCCN(CCO)c1ccccc1" in this test
f

Dear colleague, could you share the recorded outcome for "O=C(O)c1cccc(Cl)c1Cl" when you have a moment?
f

Per the records of this test, what outcome belongs to "COc1ccc(Nc2ccc(OC)cc2)cc1" ?
t

Hello, I am checking results. What call was entered for CCCC1CCC(=O)O1 (stereo not given) ?
f

// outcome(item) with item = "C=CCCCCCCCCO"
f

# lookup: test call for "CC(C)NC[C@@H](O)COc1cccc2ccccc12"
f

Test call, this molecule: "CCOc1ccc(OCC)c(Cl)c1"
f

Would you mind telling me which call this test gave "Cc1nc(-c2ccccn2)ncc1C(=O)Nn1cc(C)c2cc(F)ccc21" ?
t

Which outcome was assigned to "CS(=O)(=O)c1ccc([C@@H](O)[C@@H](CF)NC(=O)C(Cl)Cl)cc1" in this test?
f

Per the assay record, what outcome was assigned to "Cc1ncc(CO)c(CN)c1O" ?
f

Per the assay record, what outcome was assigned to "Cc1cn([C@@H]2O[C@H](CO)[C@@H](O)[C@@H]2F)c(=O)[nH]c1=O" ?
f

What did the test return for "CN1CCN(c2c(F)cc3c(=O)c(C(=O)O)cn(CCF)c3c2F)CC1" ?
f

Record lookup: outcome of this test for "CCCCCCCOC(=O)CCC" ?
f

Please let me know the test result on file for "O=[N+]([O-])c1nccn1CO[C@@H](CO)[C@H](O)CO" .
f

Could you check what this test reported for CN(CC1(C)CCCO1)S(=O)(=O)c1ccc(Cl)c(S(N)(=O)=O)c1 (stereo not given) ?
f

Test call for this molecule, please: "CC(C)O"
f

Outcome logged for CCCCC1CCC(=O)O1 (stereo not given) in this assay:
f

Can you look up the reported call for "CCCCCCn1c(=O)c2c(ncn2C)n(C)c1=O" for me?
f

Query: recorded result category for "O=C1C=CC(=O)O1" in this test
f

Hi team, can someone confirm the assay call for "CCCCCCCCOC(=O)CCCCCCCCC(=O)OCCCCCCCC" ?
f

// outcome(item) with item = "O=Cc1ccc(O)c(O)c1O"
f

Which outcome did this test record for the molecule "CC(C)C[C@H](NC(=O)OCC1c2ccccc2-c2ccccc21)C(=O)O" ?
f

Hi, do you know how "NC/C=C/C(=O)O" came out in this test?
f

What was the test verdict on "CN(C)CC[C@@H](c1ccc(Cl)cc1)c1ccccn1" ?
f

Assay outcome for "CCCCNc1cc(C(=O)O)cc(S(N)(=O)=O)c1Oc1ccccc1" : what was it?
f

Call for entry "CC(C)=CCC[C@](C)(O)[C@@H]1CC=C(C)CC1" :
f

What call does the record list for "Cc1cc2nc(N)sc2cc1C" ?
f

Entry COC(=O)C(C)O (stereo not given) : call = ?
f

Short answer needed: outcome of this test for "CCC(=O)c1ccc2c(c1)N(CCCN(C)C)c1ccccc1S2" ?
t

Please share the test call associated with "C1CCOC1" .
f

So what was the verdict on "Nc1cccc(S(=O)(=O)O)c1" in this test?
f

Fill in: this test's call for "CC1=C(CC(=O)O)c2cc(F)ccc2/C1=C\c1ccc(S(C)(=O)=O)cc1" is ___
f

Fill in: this test's call for "O=C(CC(=O)C(F)(F)F)c1ccccc1" is ___
f

What was the test verdict on "CC(C)C1=CC2=CC[C@@H]3[C@](C)(CCC[C@@]3(C)C(=O)O)[C@H]2CC1" ?
f

Hello, I am checking results. What call was entered for "CCCCCCCCCC/C=C/C#N" ?
f

Hi, do you know how "NC(=O)NS(=O)(=O)c1ccc(Cl)cc1" came out in this test?
f

Call for entry "Nc1ccc2ccccc2c1S(=O)(=O)O" :
f

Recorded call for "OCCN1CCN(CCO)CC1" ?
f

Record lookup: outcome of this test for "CCCCNCCCC" ?
f

Could you check what this test reported for "CC(C)CCCCCCc1ccc(OCCOCCO)cc1" ?
f

What is the recorded call for this molecule in the test? CCN(CC)CC1CCCCN1CC(=O)N1c2ccccc2C(=O)Nc2cccnc21 (stereo not given)
f

Could you check what this test reported for CCCCC(CC)COC(=O)COc1cc(Cl)c(Cl)cc1Cl (stereo not given) ?
f

Record lookup: outcome of this test for "CN1CCN(C2=Nc3cc(F)ccc3Cc3ccccc32)CC1" ?
f

Please state the recorded outcome for this molecule: "O=C(Cl)c1cccc([N+](=O)[O-])c1"
f

Short answer needed: outcome of this test for "FC(F)(F)C(F)(F)C(F)(F)C(F)(F)C(F)(F)C(F)(F)C(F)(F)C(F)(F)Br" ?
f

Dear colleague, could you share the recorded outcome for "Cc1onc(-c2ccccc2)c1C(=O)Cl" when you have a moment?
f

Answer briefly: the call reported for "CCC/C=C/CO" in this assay.
f

Entry "Cc1c[nH]c(=S)[nH]c1=O" : call = ?
f

Answer briefly: the call reported for "Cn1cnc2c(F)c(Nc3ccc(Br)cc3Cl)c(C(=O)NOCCO)cc21" in this assay.
f

Which outcome was entered for the molecule "CCN(CC)CCNC(=O)COc1ccc(Cl)cc1" in this test?
f

Record lookup: outcome of this test for "c1ccc(CN(CC2=NCCN2)c2ccccc2)cc1" ?
f

Please share the test call associated with "CC(C)S" .
f

###

PROTOCOL_DESCRIPTION: qHTS assay to test for compound auto fluorescence at 460 nm (blue) in HEK293 cells (AID 720678); further: on the % scale 0 is the no-effect control and ±100 the full control effect
APPLIED_CONDITIONS: blue autofluorescence 405/460 nm; series mostly up to 91.3 µM
The source made the active and inactive calls. Calls follow the shape of the dose curve; as a rule, active = well fitted curve in the direction sought with a large enough effect in the repeat runs; inconclusive = weak or mixed curves; inactive = flat fitted curve, though single readings scatter.
TEST_READOUT: fluorescence, % of triamterene

1. COc1cc(N)c(Cl)cc1C(=O)NC1CCN(Cc2ccccc2)CC1 :: 0.111% [at 18.6 µM] (inactive)
2. Cc1cc(S(=O)(=O)O)c(N)cc1Cl :: inactive
3. CC/C=C\CCOC(=O)C(C)C :: inactive
4. CO[C@@]1(NC(=O)CSCC#N)C(=O)N2C(C(=O)O)=C(CSc3nnnn3C)CS[C@@H]21 :: inactive
5. CCN[C@H]1CN(CCCOC)S(=O)(=O)c2sc(S(N)(=O)=O)cc21 :: 0.009% [at 18.6 µM] (inactive)

Item "C[C@]12C(=O)OC(=O)[C@H]1[C@H]1C=C[C@@H]2C1" has what recorded fluorescence, % of triamterene?
inactive

Using the record for "NCCCN1CCN(CCCN)CC1" , report its fluorescence, % of triamterene.
inactive
